assay: Antiproliferative activity against human GBM1 cells by MTT assay; format: functional, cell-based
readout: EC50 (µM)

| compound | readout | numeric_value |
| --- | --- | --- |
| CCN(CC)CCOCCOC(=O)C1(c2ccccc2)CCCC1 | EC50 | 5.44 |
| CC(C(O)c1ccc(O)cc1)N1CCC(Cc2ccccc2)CC1 (stereo unspecified) | EC50 | 1.99 |
| CN1CCc2cccc3c2[C@H]1Cc1ccc(O)c(O)c1-3 | EC50 | 14.6 |
| O[Si](CCCN1CCCCC1)(c1ccc(F)cc1)C1CCCCC1 (stereo unspecified) | EC50 | 12.6 |
| COc1cc(CNC(=O)CCCCCCC(C)C)ccc1O [DIHYDROCAPSAICIN] | EC50 | 88.6 |
| Nc1ccc(CCN2CCN(c3cccc(C(F)(F)F)c3)CC2)cc1 | EC50 | 1.87 |
